Target: T1, human IL-36R (human, UniProt Q9HB29 20-575)
T1 sequence (looked up): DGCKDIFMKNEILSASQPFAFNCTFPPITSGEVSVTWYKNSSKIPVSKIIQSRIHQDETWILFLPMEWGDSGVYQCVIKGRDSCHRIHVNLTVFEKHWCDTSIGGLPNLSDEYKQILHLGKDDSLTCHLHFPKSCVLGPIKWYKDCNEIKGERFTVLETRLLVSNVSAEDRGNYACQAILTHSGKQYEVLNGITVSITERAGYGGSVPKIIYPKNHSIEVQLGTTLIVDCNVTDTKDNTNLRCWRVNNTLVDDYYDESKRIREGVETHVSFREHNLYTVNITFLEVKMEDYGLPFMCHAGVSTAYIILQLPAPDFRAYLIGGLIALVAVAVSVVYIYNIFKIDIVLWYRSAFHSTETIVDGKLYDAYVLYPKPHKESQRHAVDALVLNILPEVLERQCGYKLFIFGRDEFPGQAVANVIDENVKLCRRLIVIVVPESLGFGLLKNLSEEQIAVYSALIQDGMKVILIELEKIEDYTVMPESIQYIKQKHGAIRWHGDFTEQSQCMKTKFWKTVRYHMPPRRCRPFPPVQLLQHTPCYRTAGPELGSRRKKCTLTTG
Experiment: cell-based or functional assay
measured endpoint: IC50 of IL-8 release, NCI/ADR-RES cells stimulated with IL-36β (µg/mL)

[[record]]
binder = "humanized anti-IL-36R antibody 900513 (antibody, V domains shown, IgG1 (vector with L234A, L235A) and human kappa) VH: QVQLVQSGAEVKKPGASVKVSCKASGYTFTSSWMHWAKQAPGQGLEWIGEIHPNSAKTNYNQKFQGRVTMTRDTSISTAYMELSRLRSDDTAVYYCARVDYGKPWFAYWGQGTLVTVSS VL: EIVLTQSPGTLSLSPGERATLSCSASSSVSSSYLHWYQQKPGQAPRLWIYSTSNRATGIPDRFSGSGSGTDFTLTISRLEPEDFATYYCQQFQSSPLTFGQGTKLEIK"
recorded_measurement = 0.0221

[[record]]
binder = "humanized anti-IL-36R antibody 900534 (antibody, V domains shown, IgG1 (vector with L234A, L235A) and human kappa) VH: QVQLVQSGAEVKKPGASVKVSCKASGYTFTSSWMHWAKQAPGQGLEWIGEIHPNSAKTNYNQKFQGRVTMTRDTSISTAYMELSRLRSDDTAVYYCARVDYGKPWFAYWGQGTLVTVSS VL: QIVLTQSPGTLSLSPGERATLSCRASSSVSSSYLHWYQQKPGQAPRLLIYSTSSRATGIPDRFSGSGSGTDFTLTISRLEPEDFATYYCQQFQSSPLTFGQGTKLEIK"
recorded_measurement = 0.022

[[record]]
binder = "anti-IL-36R chimeric antibody 900497 (antibody, V domains shown, Human-mouse chimera: human IgG1 heavy constant region with L234A and L235A (Eu numbering), human kappa light constant region) VH: QVQLQQTGSVLVRPGTSVKLSCKASGYTFTSSWMHWAKQRPGQGLEWIGEIHPNSAKTNYNEKFKGKATLTVDTFSSTAYVDLSSLASEDSAVYYCARVDYGKPWFAYWGQGTLVTVSA VL: QIVLTQSPTIMSASPGERVTMTCSASSSVSSSYLHWYQQKPGSSPKLWIYSTSNLASGVPARFSGSGSGTSYSLTINSMEAEDAATYYCQQFQSSPLTFGAGTKLGLK"
recorded_measurement = 0.0292

[[record]]
binder = "humanized anti-IL-36R antibody 900527 (antibody, V domains shown, IgG1 (vector with L234A, L235A) and human kappa) VH: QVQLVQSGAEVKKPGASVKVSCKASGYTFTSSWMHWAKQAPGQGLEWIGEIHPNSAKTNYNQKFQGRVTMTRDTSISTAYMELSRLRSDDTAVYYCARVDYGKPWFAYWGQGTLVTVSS VL: QIVLTQSPGTLSLSPGERATLSCRASSSVSSSYLHWYQQKPGQAPRLWIYSTSSRATGIPDRFSGSGSGTDFTLTISRLEPEDFATYYCQQFQSSPLTFGQGTKLEIK"
recorded_measurement = 0.0223

